From: the supplement of paper PMC10981050

Tested on: MARIMO;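 note: after 48 h exposure read by CellTiter-Glo luminescence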
assayName: cell viability relative to vehicle control; higher = less cytotoxic
measurementParameters: 10 µM; SRSF2 genotype: SRSF2 P95H/wt
Where a name gives a salt, the structure may show the parent alone.
measuredParameter: cell viability (%)
Form entry: value (%) — number only.

Here's what some known entries look like.
Hello, I am looking for reported cell viability with MARIMO for "CCc1c(O)cc(O)c(C(=O)c2ccc(OCCN3CCOCC3)c(OC)c2)c1CC(=O)N(CCOC)CCOC" . Could you help?
29.3

Hello, I am looking for reported cell viability with MARIMO for O=C(O)[C@@]1(CCCCCCOc2ccc(Cl)cc2)CO1 [Etomoxir (Na salt)] . Could you help?
104

Hello, I am looking for reported cell viability with MARIMO for CCC1CC(=Cc2cccnc2)C(=O)C(=Cc2cccnc2)C1 (stereo not drawn) . Could you help?
0.77

Continuing:
Hello, I am looking for reported cell viability with MARIMO for COc1ccccc1OCC(O)CO (stereo not drawn) . Could you help?
103

Hello, I am looking for reported cell viability with MARIMO for "O=C1C(c2[nH]c3ccc(S(=O)(=O)O)cc3c2O)=Nc2ccc(S(=O)(=O)O)cc21" . Could you help?
94.5

Hello, I am looking for reported cell viability with MARIMO for "CCOc1ccc(Cc2cc([C@@H]3O[C@H](CO)[C@@H](O)[C@H](O)[C@H]3O)ccc2Cl)cc1" . Could you help?
102
